biological target: MRP1/ABCC1 (Homo sapiens); construct: His; expressed in transfected cells; host or cells: BHK21 (newborn hamster kidney) transfected with pNUT-MRP/His; test: Flow cytometry: daunorubicin efflux induced by ABCC1 in transfected BHK21 cells; type: cell-based; details: probe daunorubicin (1 μM), 10 μM compound, read-out: MRP1/ABCC1 % efficacy 10 μM
Sequence (P33527 whole entry): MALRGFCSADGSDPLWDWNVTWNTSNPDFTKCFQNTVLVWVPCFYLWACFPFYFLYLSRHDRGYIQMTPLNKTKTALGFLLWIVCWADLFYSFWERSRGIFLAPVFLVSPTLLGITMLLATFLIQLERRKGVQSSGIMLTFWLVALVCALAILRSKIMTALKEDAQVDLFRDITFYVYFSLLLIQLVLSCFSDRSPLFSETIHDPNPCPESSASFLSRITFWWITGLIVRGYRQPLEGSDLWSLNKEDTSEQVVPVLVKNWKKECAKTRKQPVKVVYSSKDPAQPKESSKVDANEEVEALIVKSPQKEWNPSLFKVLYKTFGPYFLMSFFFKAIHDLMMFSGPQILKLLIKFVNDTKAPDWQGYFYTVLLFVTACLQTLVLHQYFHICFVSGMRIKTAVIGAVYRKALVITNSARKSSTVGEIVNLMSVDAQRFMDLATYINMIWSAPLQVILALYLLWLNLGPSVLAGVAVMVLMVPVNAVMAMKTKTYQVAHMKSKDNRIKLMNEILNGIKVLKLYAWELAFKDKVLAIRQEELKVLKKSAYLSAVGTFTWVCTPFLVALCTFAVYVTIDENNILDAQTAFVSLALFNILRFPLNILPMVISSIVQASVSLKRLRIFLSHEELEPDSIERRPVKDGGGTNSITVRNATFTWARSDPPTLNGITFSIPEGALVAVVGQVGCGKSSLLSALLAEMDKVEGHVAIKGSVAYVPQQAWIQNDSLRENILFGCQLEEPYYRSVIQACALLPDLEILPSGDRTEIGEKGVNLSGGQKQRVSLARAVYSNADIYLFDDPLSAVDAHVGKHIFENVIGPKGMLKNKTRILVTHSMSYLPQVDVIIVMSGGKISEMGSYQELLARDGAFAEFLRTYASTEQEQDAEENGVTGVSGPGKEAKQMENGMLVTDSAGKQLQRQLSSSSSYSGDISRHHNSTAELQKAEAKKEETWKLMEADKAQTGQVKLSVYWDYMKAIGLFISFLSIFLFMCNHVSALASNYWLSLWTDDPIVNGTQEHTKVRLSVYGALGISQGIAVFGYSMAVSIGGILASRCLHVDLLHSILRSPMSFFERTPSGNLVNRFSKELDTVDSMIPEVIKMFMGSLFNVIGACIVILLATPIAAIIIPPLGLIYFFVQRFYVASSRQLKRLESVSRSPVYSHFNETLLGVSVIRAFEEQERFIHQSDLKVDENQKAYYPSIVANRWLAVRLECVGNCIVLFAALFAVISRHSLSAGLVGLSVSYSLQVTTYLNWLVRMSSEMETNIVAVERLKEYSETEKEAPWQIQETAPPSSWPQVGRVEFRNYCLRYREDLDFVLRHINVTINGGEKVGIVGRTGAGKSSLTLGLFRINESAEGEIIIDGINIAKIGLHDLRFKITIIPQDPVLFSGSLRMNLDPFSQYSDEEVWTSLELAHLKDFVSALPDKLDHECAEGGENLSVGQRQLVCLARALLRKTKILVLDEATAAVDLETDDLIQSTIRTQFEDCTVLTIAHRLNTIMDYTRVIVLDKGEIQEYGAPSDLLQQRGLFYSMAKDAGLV
Quantity Kind: inhibition at 10 μM (%)
Enter your answer as a number in %; do not include the unit.

// query Retrieve inhibition at 10 μM measured for CC(C)(C)OC(=O)NN(C(=O)N[C@@H](CCCCNC(=O)OCc1ccccc1)C(=O)OC(C)(C)C)c1ccccc1C(=O)OCc1ccccc1 and print it.
// result 14

// query Retrieve inhibition at 10 μM measured for CC(C)(C)OC(=O)NN(C(=O)N[C@@H](CCCCNC(=O)OCc1ccccc1)C(=O)OC(C)(C)C)c1cccc(C(=O)OCc2ccccc2)c1 and print it.
// result 5

Shifting focus to the molecule that follows.
// query Retrieve inhibition at 10 μM measured for CC(C)(C)OC(=O)N[C@H](CNN(CCCCCCNC(=O)OCc1ccccc1)C(=O)OC(C)(C)C)CC(=O)OCc1ccccc1 and print it.
// result 5

* * *

Recorded measurements of inhibition at 10 μM, one per entry
biological target: BCRP/ABCG2 (Homo sapiens, UniProt Q9UNQ0); construct: expressed in transfected cells; host or cells: HEK-293 transfected with pcDNA3.1-ABCG2; test: Flow cytometry: mitoxantrone efflux induced by ABCG2 in transfected HEK-293 cells; assay type: cell-based; conditions: human, HEK-293 cells transfected with ABCG2 (vector pcDNA3.1), probe mitoxantrone (5 μM); 10 μM compound; mitoxantrone efflux; HEK-293 cells; three independent experiments; read-out: BCRP/ABCG2 % efficacy 10 μM
Sequence (Q9UNQ0 whole entry): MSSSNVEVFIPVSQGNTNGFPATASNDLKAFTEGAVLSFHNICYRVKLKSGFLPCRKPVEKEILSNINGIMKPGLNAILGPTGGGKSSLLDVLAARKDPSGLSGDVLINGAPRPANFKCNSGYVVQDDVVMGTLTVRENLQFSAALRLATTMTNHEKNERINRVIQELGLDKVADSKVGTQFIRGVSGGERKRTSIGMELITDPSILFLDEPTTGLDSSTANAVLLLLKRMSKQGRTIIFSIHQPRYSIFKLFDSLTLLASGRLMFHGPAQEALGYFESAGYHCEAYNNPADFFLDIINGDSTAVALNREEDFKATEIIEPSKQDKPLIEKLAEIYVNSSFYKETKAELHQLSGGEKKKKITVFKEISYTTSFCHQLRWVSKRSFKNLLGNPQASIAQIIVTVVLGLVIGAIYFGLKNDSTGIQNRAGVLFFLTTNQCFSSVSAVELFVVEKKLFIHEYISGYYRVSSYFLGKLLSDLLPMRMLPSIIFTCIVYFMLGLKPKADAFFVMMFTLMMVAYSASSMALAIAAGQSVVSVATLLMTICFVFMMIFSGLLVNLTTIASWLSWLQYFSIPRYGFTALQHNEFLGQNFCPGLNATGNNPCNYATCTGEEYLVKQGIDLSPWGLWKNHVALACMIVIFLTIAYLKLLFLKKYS
Enter your answer as a number in %; do not include the unit.

// query Retrieve inhibition at 10 μM measured for CC(C)(C)OC(=O)N[C@H](CNN(CCCCCCNC(=O)OCc1ccccc1)C(=O)OC(C)(C)C)CC(=O)OCc1ccccc1 [IB.1] and print it.
// result 87

// query Retrieve inhibition at 10 μM measured for CC(C)(C)OC(=O)N[C@H](CNN(CCCCCCNC(=O)OCc1ccccc1)C(=O)OCc1ccccc1)CC(=O)OCc1ccccc1 [IB.11] and print it.
// result 104

// query Retrieve inhibition at 10 μM measured for CC(C)(C)OC(=O)NN(C(=O)N[C@@H](CCCCNC(=O)OCc1ccccc1)C(=O)OC(C)(C)C)c1ccc(C(=O)OCc2ccccc2)cc1 [IA.3] and print it.
// result 38

Further cases:
// query Retrieve inhibition at 10 μM measured for CC(C)(C)OC(=O)NN(C(=O)N[C@@H](CCCCNC(=O)OCc1ccccc1)C(=O)OC(C)(C)C)c1ccccc1C(=O)OCc1ccccc1 [IA.1] and print it.
// result 112

// query Retrieve inhibition at 10 μM measured for CC(C)(C)OC(=O)NN(C(=O)N[C@@H](CCCCNC(=O)OCc1ccccc1)C(=O)OC(C)(C)C)c1cccc(C(=O)OCc2ccccc2)c1 [IA.2] and print it.
// result 112

* * *

system: HEK-293 cells; assay: Cytotoxicity on cell growth, MTT test; format: cell-based, human; conditions: 72 hours, cells expressing or not ABCG2
Quantity Kind: harmlessness / toxicity on HEK-293 cells

// query Retrieve harmlessness / toxicity on HEK-293 cells measured for CC(C)(C)OC(=O)NN(C(=O)N[C@@H](CCCCNC(=O)OCc1ccccc1)C(=O)OC(C)(C)C)c1ccccc1C(=O)OCc1ccccc1 and print it.
// result harmlessness

// query Retrieve harmlessness / toxicity on HEK-293 cells measured for CC(C)(C)OC(=O)N[C@H](CNN(CCCCCCNC(=O)OCc1ccccc1)C(=O)OCc1ccccc1)CC(=O)OCc1ccccc1 and print it.
// result harmlessness

// query Retrieve harmlessness / toxicity on HEK-293 cells measured for CC(C)(C)OC(=O)N[C@H](CNN(CCCCCCNC(=O)OCc1ccccc1)C(=O)OC(C)(C)C)CC(=O)OCc1ccccc1 and print it.
// result harmlessness

// query Retrieve harmlessness / toxicity on HEK-293 cells measured for CC(C)(C)OC(=O)NN(C(=O)N[C@@H](CCCCNC(=O)OCc1ccccc1)C(=O)OC(C)(C)C)c1cccc(C(=O)OCc2ccccc2)c1 and print it.
// result harmlessness

* * *

Recorded measurements of inhibition at 10 μM, one per entry
target: P-gp/ABCB1 (Homo sapiens, UniProt P08183); construct: expressed in transfected cells; host or cells: NIH3T3 transfected with pHaMDR1/A; assay: Flow cytometry: mitoxantrone efflux induced by ABCB1 in transfected NIH3T3 cells; assay type: cell-based; settings: human, NIH3T3 cells transfected with ABCB1 (vector pHaMDR1/A), probe mitoxantrone (5 μM), 10 μM compound, read-out: P-gp/ABCB1 % efficacy 10 μM
Sequence (P08183 whole entry): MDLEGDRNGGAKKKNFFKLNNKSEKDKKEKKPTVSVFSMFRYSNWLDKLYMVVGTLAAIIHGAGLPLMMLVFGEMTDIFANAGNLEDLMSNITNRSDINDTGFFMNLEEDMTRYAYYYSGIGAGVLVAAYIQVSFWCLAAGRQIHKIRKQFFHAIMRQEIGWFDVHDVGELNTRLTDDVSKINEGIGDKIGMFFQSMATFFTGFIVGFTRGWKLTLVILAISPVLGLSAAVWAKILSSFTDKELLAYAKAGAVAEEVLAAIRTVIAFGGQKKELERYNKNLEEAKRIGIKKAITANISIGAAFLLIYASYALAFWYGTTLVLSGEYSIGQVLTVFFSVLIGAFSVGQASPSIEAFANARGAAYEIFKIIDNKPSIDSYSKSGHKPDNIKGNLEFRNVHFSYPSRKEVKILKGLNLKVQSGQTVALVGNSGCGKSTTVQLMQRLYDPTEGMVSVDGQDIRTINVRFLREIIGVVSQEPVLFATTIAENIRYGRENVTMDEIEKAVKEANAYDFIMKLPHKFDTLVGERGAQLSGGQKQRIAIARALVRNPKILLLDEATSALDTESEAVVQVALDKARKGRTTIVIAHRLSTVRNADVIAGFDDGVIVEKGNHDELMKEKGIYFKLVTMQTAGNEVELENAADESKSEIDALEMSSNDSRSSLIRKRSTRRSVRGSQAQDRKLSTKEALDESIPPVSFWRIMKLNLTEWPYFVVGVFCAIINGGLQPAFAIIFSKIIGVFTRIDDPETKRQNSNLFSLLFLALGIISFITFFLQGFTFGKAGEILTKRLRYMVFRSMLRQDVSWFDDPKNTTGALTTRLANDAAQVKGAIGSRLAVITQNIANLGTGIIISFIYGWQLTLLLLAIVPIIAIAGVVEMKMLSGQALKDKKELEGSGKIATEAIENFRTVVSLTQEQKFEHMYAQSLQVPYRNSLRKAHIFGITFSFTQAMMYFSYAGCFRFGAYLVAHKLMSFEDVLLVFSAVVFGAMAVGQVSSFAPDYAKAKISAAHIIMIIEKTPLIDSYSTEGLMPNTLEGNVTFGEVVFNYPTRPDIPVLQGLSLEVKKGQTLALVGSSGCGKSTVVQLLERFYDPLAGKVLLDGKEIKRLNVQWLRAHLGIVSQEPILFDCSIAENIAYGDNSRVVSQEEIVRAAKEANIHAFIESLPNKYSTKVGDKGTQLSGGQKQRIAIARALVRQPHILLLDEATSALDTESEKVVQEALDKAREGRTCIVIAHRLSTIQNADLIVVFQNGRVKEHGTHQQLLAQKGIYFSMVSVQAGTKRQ
Enter your answer as a number in %; do not include the unit.

See these solved cases before continuing.
// query Report value: inhibition at 10 μM, system: P-gp/ABCB1 (Homo sapiens, UniProt P08183), compound: CC(C)(C)OC(=O)NN(C(=O)N[C@@H](CCCCNC(=O)OCc1ccccc1)C(=O)OC(C)(C)C)c1ccc(C(=O)OCc2ccccc2)cc1
// result 98

// query Report value: inhibition at 10 μM, system: P-gp/ABCB1 (Homo sapiens, UniProt P08183), compound: CC(C)(C)OC(=O)NN(C(=O)N[C@@H](CCCCNC(=O)OCc1ccccc1)C(=O)OC(C)(C)C)c1ccccc1C(=O)OCc1ccccc1
// result 74

Shifting focus to the compound that follows.
// query Report value: inhibition at 10 μM, system: P-gp/ABCB1 (Homo sapiens, UniProt P08183), compound: CC(C)(C)OC(=O)N[C@H](CNN(CCCCCCNC(=O)OCc1ccccc1)C(=O)OC(C)(C)C)CC(=O)OCc1ccccc1
// result 63

* * *

molecular target: P-gp/ABCB1 (Homo sapiens); construct: expressed in transfected cells; host or cells: NIH3T3 transfected with pHaMDR1/A; test: Flow cytometry: mitoxantrone efflux induced by ABCB1 in transfected NIH3T3 cells; type: cell-based; settings: human, NIH3T3 cells transfected with ABCB1 (vector pHaMDR1/A), probe mitoxantrone (5 μM), 2 μM compound, read-out: P-gp/ABCB1 % efficacy 2 μM
Quantity Kind: inhibition at 2 μM (%)
Enter your answer as a number in %; do not include the unit.

// query Retrieve inhibition at 2 μM measured for CC(C)(C)OC(=O)NN(C(=O)N[C@@H](CCCCNC(=O)OCc1ccccc1)C(=O)OC(C)(C)C)c1ccc(C(=O)OCc2ccccc2)cc1 and print it.
// result 90

// query Retrieve inhibition at 2 μM measured for CC(C)(C)OC(=O)NN(C(=O)N[C@@H](CCCCNC(=O)OCc1ccccc1)C(=O)OC(C)(C)C)c1ccccc1C(=O)OCc1ccccc1 and print it.
// result 70

Further cases:
// query Retrieve inhibition at 2 μM measured for CC(C)(C)OC(=O)N[C@H](CNN(CCCCCCNC(=O)OCc1ccccc1)C(=O)OC(C)(C)C)CC(=O)OCc1ccccc1 and print it.
// result 70
